Species: Rattus norvegicus
test summary: DrugMatrix - Regimen: Daily Repeat
Format: toxicity, organism-based, Sprague-Dawley
Parameters: regimen Daily Repeat, gender Male, age 6-8 weeks
test conditions: in vivo, iv, 0 mg/kg, 72 h, tissue Blood, dose level Control, time 3 day, vehicle 100 % SALINE

| mol | LYMPHOCYTE [%] |
| --- | --- |
| CC1(C)S[C@@H]2[C@H](NC(=O)[C@H](NC(=O)N3CCNC3=O)c3ccccc3)C(=O)N2[C@H]1C(=O)O | 92 |
| NCC[C@H](O)C(=O)N[C@@H]1C[C@H](N)[C@@H](O[C@H]2O[C@H](CN)[C@@H](O)[C@H](O)[C@H]2O)[C@H](O)[C@H]1O[C@H]1O[C@H](CO)[C@@H](O)[C@H](N)[C@H]1O | 91.17 |
| CC[C@@]1(O)C(=O)OCc2c1cc1n(c2=O)Cc2cc3ccccc3nc2-1 | 91.83 |
| CN(N=O)C(=O)N[C@@H](C=O)[C@@H](O)[C@H](O)[C@H](O)CO | 88.17 |

----------
Species: Rattus norvegicus
test summary: DrugMatrix - Regimen: Daily Repeat
Assay type: toxicity, organism-based, Sprague-Dawley
Design: regimen Daily Repeat, gender Male, age 6-8 weeks
test conditions: in vivo, po, 10 mg/kg, 72 h, tissue Blood, route oral GAVAGE, dose level Low, time 3 day, vehicle .5 % CMC

| molecule | HEMOGLOBIN / G/DL |
| --- | --- |
| CC(=O)O[C@]1(C(C)=O)CC[C@H]2[C@@H]3C=C(Cl)C4=CC(=O)CC[C@]4(C)[C@H]3CC[C@@]21C [CHLORMADINONE ACETATE] | 14.3 |
| COc1c(C)c2c(c(O)c1C/C=C(\C)CCC(=O)OCCN1CCOCC1)C(=O)OC2 [MYCOPHENOLATE MOFETIL] | 13.3 |
| O=C1CN=C(c2ccccc2)c2cc([N+](=O)[O-])ccc2N1 | 12.93 |
| NS(=O)(=O)c1cc2c(cc1Cl)NCNS2(=O)=O [HYDROCHLOROTHIAZIDE] | 13.77 |

----------
Species: Rattus norvegicus
test summary: DrugMatrix - Regimen: Daily Repeat
Format: toxicity, organism-based, Sprague-Dawley
Set-up: regimen Daily Repeat, gender Male, age 6-8 weeks
test conditions: in vivo, po, 0 mg/kg, 120 h, tissue Plasma, route oral GAVAGE, dose level Control, time 5 day, […]
Tag: Met if measured PHOSPHORUS is not below 10 mg/dL, Not met if it is.

| compound | assigned label |
| --- | --- |
| CCCC[C@@H](CC)COC(=O)c1ccccc1C(=O)OC[C@@H](CC)CCCC [BIS(2-ETHYLHEXYL)PHTHALATE] | Met |
| O=[N+]([O-])c1cc([As](=O)(O)O)ccc1O [ROXARSONE] | Met |
| C=CCN [ALLYLAMINE] | Not met |
| Oc1c(Cl)cc(Cl)cc1Sc1cc(Cl)cc(Cl)c1O [BITHIONOL] | Not met |
| CSc1ccc2c(c1)N(CCC1CCCCN1C)c1ccccc1S2 (configuration not stated) [THIORIDAZINE] | Met |

----------
Species on record: Rattus norvegicus
test summary: DrugMatrix - Regimen: Daily Repeat
Assay type: toxicity, organism-based, Sprague-Dawley
Design: regimen Daily Repeat, gender Male, age 6-8 weeks
test conditions: in vivo, po, 0 mg/kg, 120 h, tissue Blood, route oral GAVAGE, dose level Control, time 5 day, […]

| compound | ABSOLUTE EOSINOPHIL [CELLS/uL] |
| --- | --- |
| COc1ccc2c(c1)c(CC(=O)OCC(=O)O)c(C)n2C(=O)c1ccc(Cl)cc1 [ACEMETACIN] | 183.33 |
| COC1=CC(=O)C[C@@H](C)[C@]12Oc1c(Cl)c(OC)cc(OC)c1C2=O [GRISEOFULVIN] | 58.67 |
| CCCC[C@@H](CC)COC(=O)c1ccccc1C(=O)OC[C@@H](CC)CCCC [BIS(2-ETHYLHEXYL)PHTHALATE] | 20.67 |
| CC1=C(/C=C/C(C)=C/C=C/C(C)=C\C(=O)O)C(C)(C)CCC1 [ISOTRETINOIN] | 0 |
| Cn1cnc([N+](=O)[O-])c1Sc1ncnc2nc[nH]c12 [AZATHIOPRINE] | 0 |
| CN(C)CCCC1(c2ccc(F)cc2)OCc2cc(C#N)ccc21 (centres undefined) [CITALOPRAM] | 0 |
| CC(C)n1c(/C=C/C(O)CC(O)CC(=O)O)c(-c2ccc(F)cc2)c2ccccc21 (centres undefined) [FLUVASTATIN] | 14.67 |
| CSc1ccc2c(c1)N(CCC1CCCCN1C)c1ccccc1S2 (centres undefined) [THIORIDAZINE] | 87 |
